Entries and their Cmax of oxycodone values follow.
- protocolText: Comparative oral bioavailability of oxycodone from various dicarboxylate bridged amino acid prodrugs in dogs (nine-way crossover)
- Assay type: in vivo, dog
- testParameters: 1 mg/kg oxycodone free base, mean (±sd)

COc1ccc2c3c1OC1C(OC(=O)CCC(=O)N[C@@H](CC(C)C)C(=O)O)=CC[C@@]4(O)[C@@H](C2)N(C)CC[C@]314 (some centres unmarked) [Oxycodone-Succinyl-Leu Enol Ester]: 60.9 (±15.0) ng/mL
CC[C@H](C)[C@H](NC(=O)CCC(=O)OC1=CC[C@@]2(O)[C@H]3Cc4ccc(OC)c5c4[C@@]2(CCN3C)[C@H]1O5)C(=O)O [Oxycodone-Succinyl-Ile Enol Ester]: 57.9 (±8.7) ng/mL
COc1ccc2c3c1O[C@H]1C(OC(=O)CCC(=O)N4CCC[C@H]4C(=O)O)=CC[C@@]4(O)[C@@H](C2)N(C)CC[C@]314 [Oxycodone succinyl proline ester]: 20.1 (±4.60) ng/mL
CC[C@H](C)[C@H](NC(=O)CCCC(=O)OC1=CC[C@@]2(O)[C@H]3Cc4ccc(OC)c5c4[C@@]2(CCN3C)[C@H]1O5)C(=O)O [Oxycodone-Glutaryl-Ile Enol Ester]: 46.8 (±15.0) ng/mL

Consider the additional compound presented here.
Query: Look at this compound and give its reported Cmax of oxycodone. COc1ccc2c3c1OC1C(OC(=O)CCC(=O)N[C@@H](CCSC)C(=O)O)=CC[C@@]4(O)[C@@H](C2)N(C)CC[C@]314 (some centres unmarked) [Oxycodone-Succinyl-Met Enol Ester]
Reply: 68.3 (±21.1) ng/mL

----------
Entries and their 2 h stability in simulated intestinal fluid (37° C.), Conversion to meptazinol values follow.
- protocolText: Stability of meptazinol dicarboxylate bridged amino acid prodrugs in simulated gastric and intestinal juice and pH 7.4 buffer
- Assay type: physicochemical
- testParameters: simulated intestinal fluid, 2 h
- Procedure: Initially the inherent chemical and biological stability of various dicarboxylate bridged amino acid prodrugs of meptazinol, was investigated under the conditions prevailing in the GI tract. […] The remaining concentrations of the prodrug (and also drug released) were then assayed by HPLC. Additionally their chemical stability was evaluated in pH 7.4 buffer for 2 h 37° C.
I only need the number, in %, no unit after it.

Solved entries:
CCC1(c2cccc(OC(=O)CCC(=O)N3CCC[C@H]3C(=O)O)c2)CCCCN(C)C1 (stereo partly drawn) [Meptazinol-[succinyl-(S)-proline] ester]: 4
CCC1(c2cccc(OC(=O)CC(C)(C)CC(=O)NCC(=O)O)c2)CCCCN(C)C1 (stereo not shown): 4
CCC1(c2cccc(OC(=O)CC(C)(C)CC(=O)Nc3ccc(C(=O)O)cc3)c2)CCCCN(C)C1 (stereo not shown): 5

Query: Look at this compound and give its reported 2 h stability in simulated intestinal fluid (37° C.), Conversion to meptazinol. CCC1(c2cccc(OC(=O)c3ccccc3C(=O)N[C@@H](Cc3ccccc3)C(=O)O)c2)CCCCN(C)C1.O=C(O)C(F)(F)F (stereo partly shown)
Reply: 30

----------
Entries and their % change from vehicle-treated animals, small intestine values follow.
- System: gut motility in the rat
- protocolText: Charcoal propulsion test of GI motility in the rat
- Assay type: in vivo
- testParameters: oral, 100 mg/kg
I only need the number, in %, no unit after it.

Solved entries:
COc1ccc2c3c1O[C@H]1[C@@H](O)C=C[C@H]4[C@@H](C2)N(C)CC[C@@]341 [Codeine phosphate hemihydrate]: −35.1
COc1ccc2c3c1O[C@H]1C(OC(=O)CCC(=O)NC(C(=O)O)C(C)C)=CC[C@@]4(O)[C@@H](C2)N(C)CC[C@]314 (stereo in doubt): −35.4

Consider the additional compound presented here.
Query: Look at this compound and give its reported % change from vehicle-treated animals, small intestine. COc1ccc2c3c1O[C@H]1[C@@H](OC(=O)CCC(=O)N[C@H](C(=O)O)C(C)C)C=CC4[C@@H](C2)N(C)CC[C@@]341 (stereo partly drawn) [Codeine-[succinyl-(S)-valine] ester, codeine-[succinyl-(S)-valine]ester]
Reply: −16.4

----------
- Tested on: gut motility in the rat
- protocolText: Charcoal propulsion test of GI motility in the rat
- Type: in vivo
- testParameters: oral, 30 mg/kg
reportedMetric: % change from vehicle-treated animals, total gut length (%)
I only need the number, in %, no unit after it.

COc1ccc2c3c1O[C@H]1C(OC(=O)CCC(=O)NC(C(=O)O)C(C)C)=CC[C@@]4(O)[C@@H](C2)N(C)CC[C@]314 (stereo in doubt): −15.6

Query: Recorded % change from vehicle-treated animals, total gut length for COc1ccc2c3c1O[C@H]1[C@@H](OC(=O)CCC(=O)N[C@H](C(=O)O)C(C)C)C=CC4[C@@H](C2)N(C)CC[C@@]341 (stereo partly drawn) [Codeine-[succinyl-(S)-valine] ester, codeine-[succinyl-(S)-valine]ester] with gut motility in the rat, please?
Reply: −15.1

Query: What do you have for COc1ccc2c3c1O[C@H]1[C@@H](OC(=O)CCC(=O)NC(C(=O)O)C(C)C)CCC4[C@@H](C2)N(C)CC[C@@]341 (stereo in doubt) ?
Reply: −8.5

----------
- System: gut motility in the rat
- protocolText: Charcoal propulsion test of GI motility in the rat
- Type: in vivo
- testParameters: oral, 100 mg/kg
Entry flag: Yes if % change from vehicle-treated animals, total gut length reaches -30%; No if it does not.

Query: Quick check, % change from vehicle-treated animals, total gut length >= -30%? COc1ccc2c3c1O[C@H]1[C@@H](O)CC[C@H]4[C@@H](C2)N(C)CC[C@@]341.O=C(O)C(O)C(O)C(=O)O [Dihydrocodeine Hydrogen Tartrate, reference compound]
Reply: No

Query: What do you have for COc1ccc2c3c1O[C@H]1[C@@H](OC(=O)CCC(=O)N[C@H](C(=O)O)C(C)C)C=CC4[C@@H](C2)N(C)CC[C@@]341 (stereo partly drawn) [Codeine-[succinyl-(S)-valine] ester, codeine-[succinyl-(S)-valine]ester] ?
Reply: Yes

Query: What do you have for COc1ccc2c3c1O[C@H]1C(=O)CC[C@@]4(O)[C@@H](C2)N(C)CC[C@]314 [Oxycodone, oxycodone, reference compound] ?
Reply: No

Query: What do you have for COc1ccc2c3c1O[C@H]1[C@@H](OC(=O)CCC(=O)NC(C(=O)O)C(C)C)CCC4[C@@H](C2)N(C)CC[C@@]341 (stereo in doubt) ?
Reply: Yes

Query: What do you have for COc1ccc2c3c1O[C@H]1C(OC(=O)CCC(=O)NC(C(=O)O)C(C)C)=CC[C@@]4(O)[C@@H](C2)N(C)CC[C@]314 (stereo in doubt) ?
Reply: No

Query: What do you have for COc1ccc2c3c1O[C@H]1[C@@H](O)C=C[C@H]4[C@@H](C2)N(C)CC[C@@]341 [Codeine phosphate hemihydrate] ?
Reply: No

----------
- protocolText: Systemic availability of hydrocodone in dogs after oral administration of hydrocodone or hydrocodone succinyl valine enol ester
- testParameters: male, Beagle, dog, plasma, po, 1 mg hydrocodone free base equivalents/kg, AUC of hydrocodone, male dogs, mean
reportedMetric: AUC (ng·h/mL)
I only need the number, in ng·h/mL, no unit after it.

Query: Look at this compound and give its reported AUC. COc1ccc2c3c1O[C@H]1C(=O)CC[C@H]4[C@@H](C2)N(C)CC[C@]314 [Hydrocodone, hydrocodone]
Reply: 105

----------
- protocolText: Plasma pharmacokinetics of meptazinol dicarboxylate linked prodrugs after oral gavage to dogs
- Assay type: in vivo, dog
- testParameters: dog; oral gavage of prodrug, 1 mg meptazinol base equivalents/kg; meptazinol level
reportedMetric: Dog Cmax (plasma meptazinol) (ng/mL)
I only need the number, in ng/mL, no unit after it.

Solved entries:
CCC1(c2cccc(OC(=O)CCC(=O)N3CCC[C@H]3C(=O)O)c2)CCCCN(C)C1 (stereo partly drawn) [Meptazinol-[succinyl-(S)-proline] ester]: 0.7
CCC1(c2cccc(OC(=O)CC(=O)Nc3ccc(C(=O)O)cc3)c2)CCCCN(C)C1 (centres unmarked) [Meptazinol [malonyl-PABA] ester]: 2.1
CCC1(c2cccc(OC(=O)c3ccccc3C(=O)N[C@@H](Cc3ccccc3)C(=O)O)c2)CCCCN(C)C1.O=C(O)C(F)(F)F (some centres unmarked): 9.1
CCC1(c2cccc(OC(=O)C(C)(C)CC(=O)N[C@H](C(=O)O)C(C)C)c2)CCCCN(C)C1 (some centres unmarked): 0.9
CCC1(c2cccc(OC(=O)CCCC(=O)Nc3ccc(C(=O)O)cc3)c2)CCCCN(C)C1 (centres unmarked) [Meptazinol [glutaryl-PABA] ester]: 3.4

Query: Look at this compound and give its reported Dog Cmax (plasma meptazinol). CCC1(c2cccc(OC(=O)CC(C)(C)CC(=O)Nc3ccc(C(=O)O)cc3)c2)CCCCN(C)C1 (centres unmarked)
Reply: 9.4

Query: What do you have for CCC1(c2cccc(OC(=O)C=CC(=O)Nc3ccc(C(=O)O)cc3)c2)CCCCN(C)C1 (centres unmarked) [Meptazinol [fumaryl-PABA] ester] ?
Reply: 1.5

Query: What do you have for CCC1(c2cccc(OC(=O)CC(C)(C)CC(=O)NCC(=O)O)c2)CCCCN(C)C1 (centres unmarked) ?
Reply: 0.5
